Tested on: mouse fibroblast L-929
Assay: 5-day MTT cytotoxicity assay
Type: cell-based
Settings: Mus musculus, L929, 120 h
Method: Cytotoxicity of compounds 1‒5 was initially determined against two cancer cell lines (mouse fibroblasts L-929 and human endocervical adenocarcinoma KB-3.1) by using a 5-day MTT assay according to an established procedure. In 96-well flat-bottom microtiter plates, cell lines with serial dilution of the test compounds (final range: 37 to 0.6 × 10^−3 µg/mL) were incubated for five days. […]
RESULT_TYPE: pIC50
FYI, pIC50 means -log10 of a concentration in mol per litre.

In: Form field: reported pIC50 of C/C(=C\c1csc(C)n1)[C@@H]1C[C@@H]2O[C@]2(C)CCC[C@H](C)[C@H](O)[C@@H](C)C(=O)C(C)(C)[C@@H](O)CC(=O)O1 [epothilone B, reference compound]
Out: 9.08

====

Test system: Rhodotorula glutinis DSM 10134
Assay: Antimicrobial serial dilution assay (MIC)
Type: cell-based
Conditions: serial dilution 67 to 0.5 µg/mL, overnight
Marks after values point to notes of the source that are not given here.
RESULT_TYPE: MIC

| COMPOUND | MIC |
| --- | --- |
| CC1=CC2CC(C)CCC2C2(C)C(=O)OC(C(=O)O)C(C)C12 (stereo not drawn) [compound 3, Colposetin C] | n.i |
| CC(=O)OC(C(=O)O)C(C)C1C(C)=CC2CC(C)CCC2C1(C)C(O)=C1C(=O)C(C)N(C)C1=O (stereo not drawn) [compound 1, Colposetin A] | n.i |
| CC(C=CCC(C)C=CC=C(C)C(=O)C1=C(O)C(C)N(C)C1=O)=CC(C)C(O)C(=O)O (stereo not drawn) [compound 5, Colpomenoic acid B] | n.i |
| C[C@@H]1[C@H](O)[C@@H](C)/C=C/C=C/CC/C=C/C=C/C=C/C=C/C(O[C@H]2O[C@H](C)[C@@H](O)[C@H](N)[C@@H]2O)CC2O[C@](O)(CC(O)C(O)CCC(O)CC(O)CC(O)CC(=O)O[C@H]1C)CC(O)C2C(=O)O (stereo partly drawn) [nystatin, reference compound] | 1.0 ^b µg/mL |
| CC(C=CCC(C)CCC=C(C)C(=O)C1=C(O)C(C)N(C)C1=O)=CC(C)C(O)C(=O)O (stereo not drawn) [compound 4, Colpomenoic acid A] | n.i |

Consider the record given below.
In: Form field: reported MIC of CCC(C(=O)O)C1C(C)=CC2CC(C)CCC2C1(C)C(O)=C1C(=O)C(C)N(C)C1=O (stereo not drawn) [compound 2, Colposetin B]
Out: n.i

====

Tested on: squamous cell carcinoma A-431
Assay: 5-day MTT cytotoxicity assay
Format: cell-based, human
Conditions: Homo sapiens, A-431, 120 h, A-431, 5-day MTT assay; read-out: IC50
RESULT_TYPE: IC50

In: Form field: reported IC50 of CCC(C(=O)O)C1C(C)=CC2CC(C)CCC2C1(C)C(O)=C1C(=O)C(C)N(C)C1=O (stereo not shown)
Out: 6.2 to 8.1 µM

====

Test system: Mucor hiemalis DSM 2656
Assay: Antimicrobial serial dilution assay (MIC)
Assay type: cell-based
Conditions: serial dilution 67 to 0.5 µg/mL, overnight
Marks after values point to notes of the source that are not given here.
RESULT_TYPE: MIC

| COMPOUND | MIC |
| --- | --- |
| CC(C=CCC(C)C=CC=C(C)C(=O)C1=C(O)C(C)N(C)C1=O)=CC(C)C(O)C(=O)O (centres unmarked) [compound 5, Colpomenoic acid B] | n.i |
| CC(=O)OC(C(=O)O)C(C)C1C(C)=CC2CC(C)CCC2C1(C)C(O)=C1C(=O)C(C)N(C)C1=O (centres unmarked) [compound 1, Colposetin A] | n.i |
| C[C@@H]1[C@H](O)[C@@H](C)/C=C/C=C/CC/C=C/C=C/C=C/C=C/C(O[C@H]2O[C@H](C)[C@@H](O)[C@H](N)[C@@H]2O)CC2O[C@](O)(CC(O)C(O)CCC(O)CC(O)CC(O)CC(=O)O[C@H]1C)CC(O)C2C(=O)O (some centres unmarked) [nystatin, reference compound] | 4.2 ^b µg/mL |
| CC1=CC2CC(C)CCC2C2(C)C(=O)OC(C(=O)O)C(C)C12 (centres unmarked) [compound 3, Colposetin C] | n.i |

Consider the record given below.
In: Form field: reported MIC of CC(C=CCC(C)CCC=C(C)C(=O)C1=C(O)C(C)N(C)C1=O)=CC(C)C(O)C(=O)O (centres unmarked) [compound 4, Colpomenoic acid A]
Out: n.i

// provenance: paper PMC8224775
